biological target: mouse vas deferens (MVD), primarily delta-type opiate receptors (Mus musculus); construct: from tissue; host or cells: mouse vas deferens; experiment: mouse vas deferens (MVD) assay: inhibition of electrically induced muscle contractions; assay type: cell-based; conditions: mouse vas deferens, electrically stimulated contractions; read-out: IC50 (nM) ± S.E.E. MVD
Sequence (P32300 whole entry): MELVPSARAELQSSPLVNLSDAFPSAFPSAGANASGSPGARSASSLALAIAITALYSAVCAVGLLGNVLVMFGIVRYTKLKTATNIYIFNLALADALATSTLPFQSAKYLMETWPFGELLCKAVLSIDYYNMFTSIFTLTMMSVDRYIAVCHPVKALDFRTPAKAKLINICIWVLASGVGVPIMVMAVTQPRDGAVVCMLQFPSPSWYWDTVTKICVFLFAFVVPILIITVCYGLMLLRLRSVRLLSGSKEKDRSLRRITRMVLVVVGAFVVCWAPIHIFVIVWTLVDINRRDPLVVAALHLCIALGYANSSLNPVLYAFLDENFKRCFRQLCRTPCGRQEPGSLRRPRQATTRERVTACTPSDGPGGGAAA
Bridge positions count the residues as written; N and C are the ends. Square brackets hold non-standard residues; d marks the D form. Peptide text beside a SMILES is read from it. Phe(4-F) = N[C@@H](Cc1ccc(F)cc1)C(=O)O; dPen = CC(C)(S)[C@@H](N)C(=O)O; Abu = CC[C@H](N)C(=O)O
Give measured IC50 for each item. Keep answers brief.
Give your result in nM as a bare value.

Asked: Specify IC50 for C[C@@H]1NC(=O)[C@H](NC(=O)[C@@H](N)Cc2ccc(O)cc2)C(C)(C)SSC(C)(C)[C@H](C(=O)O)NC(=O)[C@H](Cc2ccc(F)cc2)NC1=O [[p-F--Phe^4 ]DPADPE] (H-Y[dPen]A[Phe(4-F)][dPen]-OH; disulfide 2-5) and stop.
Given back: 3.61

Asked: Recall and state the measured IC50 for CC[C@@H]1NC(=O)[C@H](NC(=O)[C@@H](N)Cc2ccc(O)cc2)C(C)(C)SSC(C)(C)[C@H](C(=O)O)NC(=O)[C@H](Cc2ccccc2)NC1=O [[L--Abu^3]DPDPE] (H-Y[dPen][Abu]F[dPen]-OH; disulfide 2-5) .
Given back: 84.9

Asked: Return reported IC50. Input compound: C[C@@H]1NC(=O)[C@H](NC(=O)[C@@H](N)Cc2ccc(O)cc2)C(C)(C)SSC(C)(C)[C@H](C(=O)O)NC(=O)[C@H](Cc2ccccc2)NC1=O [[L--Ala^3 ]DPDPE (DPADPE)] (H-Y[dPen]AF[dPen]-OH; disulfide 2-5)
Given back: 11.8

Asked: Look up and state reported IC50 for C[C@H]1NC(=O)[C@H](NC(=O)[C@@H](N)Cc2ccc(O)cc2)C(C)(C)SSC(C)(C)[C@H](C(=O)O)NC(=O)[C@H](Cc2ccccc2)NC1=O [[D--Ala^3]DPDPE] (H-Y[dPen][dA]F[dPen]-OH; disulfide 2-5)
Given back: 572
